# target or system: Trypsin (Bos taurus, UniProt P00760)
# Construct: purchased Calbiochem 6502
# Sequence (P00760 24-246): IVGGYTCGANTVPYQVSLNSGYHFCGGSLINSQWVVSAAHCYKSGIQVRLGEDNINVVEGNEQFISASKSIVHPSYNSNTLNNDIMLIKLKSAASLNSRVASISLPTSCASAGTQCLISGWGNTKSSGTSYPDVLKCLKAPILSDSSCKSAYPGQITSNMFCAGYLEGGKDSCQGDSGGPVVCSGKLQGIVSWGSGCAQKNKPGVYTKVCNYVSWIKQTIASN
# assay method text: Serine protease inhibition: trypsin
# Type: biochemical, mammalian
test readout: IC50

Given the compound CC(=O)N[C@@H](CC(C)C)C(=O)N[C@@H](CC(C)C)C(=O)N[C@H](C=O)CCCNC(=N)N [Leupeptin, leupeptin, reference compound] , what is its reported IC50? < 0.27 µM
